system: SK-BR-3; test: Cytotoxicity against human SKBR3 cells after 3 days by SRB assay; assay type: functional, cell-based; conditions: SK-BR-3, 72 h
Consider the following compounds and their measured IC50 readings.
measure-name: IC50

| compound | measured-target | recorded-measurement |
| --- | --- | --- |
| CC1(C)CCC(C)(C)c2cc(C(=O)/C=C/c3c[nH]c4ccccc34)ccc21 | SK-BR-3 | 1290 nM |
| CC[C@@]1(O)C(=O)OCc2c1cc1n(c2=O)Cc2cc3ccccc3nc2-1 [CAMPTOTHECIN] | SK-BR-3 | < 10 nM |

* * *

system: MDA-MB-361; assay: Cytotoxicity against human MDA-MB-361 cells after 3 days by SRB assay; type: functional, cell-based; settings: MDA-MB-361, 72 h

| compound | IC50 |
| --- | --- |
| CC[C@@]1(O)C(=O)OCc2c1cc1n(c2=O)Cc2cc3ccccc3nc2-1 [CAMPTOTHECIN] | 170 nM |
| CC1(C)CCC(C)(C)c2cc(C(=O)/C=C/c3c[nH]c4ccccc34)ccc21 | 60 nM |
